- assay.system: human ER46 (Homo sapiens, UniProt P03372)
measurement.type: IC50 (µM)
Numbers only, in µM.

Short answer for Oc1ccc(-c2c(-c3ccccc3)nn3c(C(F)(F)F)cc(C(F)(F)F)nc23)cc1 : IC50 was 3.33

---

Target chain: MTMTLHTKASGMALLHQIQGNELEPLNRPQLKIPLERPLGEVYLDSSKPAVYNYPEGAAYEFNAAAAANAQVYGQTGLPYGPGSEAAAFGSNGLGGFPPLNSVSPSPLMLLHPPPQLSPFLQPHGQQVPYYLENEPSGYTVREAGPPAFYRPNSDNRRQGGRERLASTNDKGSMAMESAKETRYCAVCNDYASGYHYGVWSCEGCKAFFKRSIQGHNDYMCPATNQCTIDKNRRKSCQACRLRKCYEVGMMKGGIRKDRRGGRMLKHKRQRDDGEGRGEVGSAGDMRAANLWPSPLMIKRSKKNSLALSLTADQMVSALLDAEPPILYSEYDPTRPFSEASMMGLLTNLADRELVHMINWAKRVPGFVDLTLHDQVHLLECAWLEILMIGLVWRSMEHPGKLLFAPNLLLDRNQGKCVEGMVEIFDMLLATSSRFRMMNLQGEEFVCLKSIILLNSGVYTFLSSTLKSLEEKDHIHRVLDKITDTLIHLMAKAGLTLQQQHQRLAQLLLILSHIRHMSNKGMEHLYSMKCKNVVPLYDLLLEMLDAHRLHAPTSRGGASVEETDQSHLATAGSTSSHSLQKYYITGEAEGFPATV
measurement.type: IC50 (nM)
Numbers only, in nM.

Short answer for Oc1ccc(-c2c(-c3ccccc3)nn3c(C(F)(F)F)cc(C(F)(F)F)nc23)cc1 : IC50 was 1330

The reported numbers originate from paper PMC3639985.
